# EC50 listing for each entry below
# measured.target: T1, human CLDN6, endogenously expressed on cancer cell lines (human, UniProt P56747 1-220)
# T1 construct: also called Endogenous CLDN6+; CLDN6 on ARK2, OVCA429, UMUC4 cells
# T1 sequence: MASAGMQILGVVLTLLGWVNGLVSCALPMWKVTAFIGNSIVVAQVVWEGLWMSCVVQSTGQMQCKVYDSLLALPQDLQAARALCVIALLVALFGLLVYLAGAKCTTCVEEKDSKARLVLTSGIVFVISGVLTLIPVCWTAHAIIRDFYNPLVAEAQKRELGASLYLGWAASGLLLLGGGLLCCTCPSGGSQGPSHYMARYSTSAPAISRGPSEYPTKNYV
# procedure.text: FACS dose curve, labelled mAb, ARK2 cells
API: value field is a number in nM; no unit string.

{"binder": "AB14 (antibody, V domains shown, Full-length IgG (ExpiCHO)) VH: QVQLQQSGPELVRPGVSVKISCKGSGYTFTDYAMHWVKQSHAKSLEWIGVISTYSGNTNYNQKFQDKATMTVDKSSSTAYMALARLTSDDSAIYYCARRGDYSLYAMDYWGQGTSVTVSS VL: DIVLTQSPASLAVSLGQRATISCKASQSVDYDGDNYVNWYQQKVGQPPKLLISAASNLESGIPARFSGSGSGTDFTLNIHPVEEEDAATYYCQQSNEDPFTFGSGTKLEIK", "EC50 [nM]": 1300}

Alright, here's another binder for you.
q: # EC50 lookup, item AB2 (antibody, V domains shown, Full-length IgG (ExpiCHO)) VH: EVKLEESGGGLVQPGGSMKLSCVASGFTFSDYWMNWVRQSPEKGLEWVAQIRLKSDNYATHYAESVKGRFTISRDDSKRSVYLQMNNLRAEDTGTYYCNDGPPSGCWGQGTTLIVSS VL: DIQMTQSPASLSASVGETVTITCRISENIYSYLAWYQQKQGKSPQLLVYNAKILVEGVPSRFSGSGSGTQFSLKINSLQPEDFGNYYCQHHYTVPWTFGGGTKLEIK
a: 1360
